Recorded values, source BigSolDB 2.1.

# test_conditions: in isobutanol, 318.15 K
assay_readout: solubility (mole fraction)
Answer with a number only.

Looking up O=[N+]([O-])c1cn[nH]c1 , I found its solubility (mole fraction) recorded as 0.161

###

# test_conditions: in ethanol, 313.15 K
assay_readout: solubility (mole fraction)
Respond numerically, and do not add a unit to the figure.

solubility (mole fraction) reported for this compound O=[N+]([O-])c1cn[nH]c1 : 0.197

###

# test_conditions: in n-pentanol, 293.15 K
assay_readout: solubility (mole fraction)

solubility (mole fraction) reading for O=[N+]([O-])c1cn[nH]c1 : 0.0823

###

# test_conditions: in ethyl acetate, 328.15 K
assay_readout: solubility (mole fraction)
Form rule: numeric answer, no unit written next to it.

Measured solubility (mole fraction), O=[N+]([O-])c1cn[nH]c1 : 0.0261

###

# test_conditions: in acetonitrile, 293.15 K
assay_readout: solubility (mole fraction)

// O=[N+]([O-])c1cn[nH]c1 : solubility (mole fraction) value = 0.0457

###

# test_conditions: in acetonitrile, 288.15 K
assay_readout: solubility (mole fraction)
Please respond with just the number, no unit label.

Entry under test: O=[N+]([O-])c1cn[nH]c1 . Its solubility (mole fraction) was 0.0391

###

# test_conditions: in ethyl acetate, 293.15 K
assay_readout: solubility (mole fraction)

Briefly, solubility (mole fraction) measured for O=[N+]([O-])c1cn[nH]c1 : 0.00609

###

# test_conditions: in isopropanol, 303.15 K
assay_readout: solubility (mole fraction)
// no unit, no text: just the number

O=[N+]([O-])c1cn[nH]c1 yielded solubility (mole fraction) of 0.0827

###

# test_conditions: in THF, 328.15 K
assay_readout: solubility (mole fraction)
In your answer, state the number alone without any accompanying words.

Record summary for O=[N+]([O-])c1cn[nH]c1 : reported solubility (mole fraction) = 0.022

###

# test_conditions: in acetone, 293.15 K
assay_readout: solubility (mole fraction)
Would you mind answering with just the numeric figure?

For record O=[N+]([O-])c1cn[nH]c1 the listed solubility (mole fraction) is 0.0405

###

# test_conditions: in isopentanol, 313.15 K
assay_readout: solubility (mole fraction)
Simply state the number, no unit and no words.

Memo: O=[N+]([O-])c1cn[nH]c1 , reported solubility (mole fraction): 0.143

###

# test_conditions: in ethyl acetate, 303.15 K
assay_readout: solubility (mole fraction)
Enter a number only.

Record O=[N+]([O-])c1cn[nH]c1 , field solubility (mole fraction): 0.00946

###

# test_conditions: in n-pentanol, 328.15 K
assay_readout: solubility (mole fraction)

Lab book: solubility (mole fraction) of O=[N+]([O-])c1cn[nH]c1 noted as 0.276

###

# test_conditions: in methyl acetate, 323.15 K
assay_readout: solubility (mole fraction)
Give the figure only, with no unit attached.

GET /value?item= O=[N+]([O-])c1cn[nH]c1 &field=solubility (mole fraction) returns 0.024

###

# test_conditions: in n-butanol, 323.15 K
assay_readout: solubility (mole fraction)
Just the number, please, no unit after it.

Entry O=[N+]([O-])c1cn[nH]c1 ; solubility (mole fraction) = 0.241

###

# test_conditions: in water, 308.15 K
assay_readout: solubility (mole fraction)
// print number alone

Entry O=[N+]([O-])c1cn[nH]c1 , solubility (mole fraction) reported as 0.00618
